- tgt: human CD33 N53A (human, UniProt P20138 18-364)
- Sequence (P20138 18-364 N53A limits assumed): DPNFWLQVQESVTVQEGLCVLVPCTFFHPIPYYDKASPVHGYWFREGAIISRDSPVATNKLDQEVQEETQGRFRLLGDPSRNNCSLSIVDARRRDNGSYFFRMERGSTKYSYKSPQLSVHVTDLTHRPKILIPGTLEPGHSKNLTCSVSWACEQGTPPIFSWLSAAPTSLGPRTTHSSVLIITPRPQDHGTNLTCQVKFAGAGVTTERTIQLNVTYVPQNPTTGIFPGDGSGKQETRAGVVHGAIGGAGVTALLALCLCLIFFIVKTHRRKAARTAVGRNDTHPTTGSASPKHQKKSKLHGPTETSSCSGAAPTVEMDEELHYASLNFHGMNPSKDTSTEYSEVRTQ
- protocol: alanine scan, flow cytometry;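 note: HEK293-T cells transiently expressing single-residue alanine mutants of CD33 (alanine swapped to serine), antibody binding read by fluorescence in duplicate, background-subtracted, expressed relative to wild-type CD33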
Mean % WT Binding values, listed per item

>  <binder>
Refmab #1 (antibody, V domains shown, Full-length format is human IgG1 (Absolute Antibody Ab00283-10.0); The alanine scan used IgG or Fab; also called hP67.6) VH: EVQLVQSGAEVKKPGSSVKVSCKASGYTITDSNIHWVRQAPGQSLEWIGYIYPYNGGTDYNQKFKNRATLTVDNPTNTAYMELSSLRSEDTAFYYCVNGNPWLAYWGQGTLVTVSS VL: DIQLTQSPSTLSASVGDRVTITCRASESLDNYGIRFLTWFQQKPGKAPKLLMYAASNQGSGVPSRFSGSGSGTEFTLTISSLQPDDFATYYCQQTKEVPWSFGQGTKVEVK

>  <Mean % WT Binding [% WT]>
94.7

$$$$
>  <binder>
Refmab #3 (antibody, V domains shown, Full-length format is human IgG1 Fc silent (PG-LALA); The alanine scan used IgG or Fab) VH: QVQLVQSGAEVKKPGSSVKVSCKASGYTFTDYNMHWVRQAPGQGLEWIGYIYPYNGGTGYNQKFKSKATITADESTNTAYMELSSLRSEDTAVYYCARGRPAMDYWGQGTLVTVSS VL: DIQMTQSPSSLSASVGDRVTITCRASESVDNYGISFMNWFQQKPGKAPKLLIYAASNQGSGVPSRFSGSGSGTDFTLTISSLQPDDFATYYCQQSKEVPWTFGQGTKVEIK

>  <Mean % WT Binding [% WT]>
116

$$$$
>  <binder>
Refmab #4 (antibody, V domains shown, Full-length format is human IgG1 Fc silent (PG-LALA); The alanine scan used IgG or Fab) VH: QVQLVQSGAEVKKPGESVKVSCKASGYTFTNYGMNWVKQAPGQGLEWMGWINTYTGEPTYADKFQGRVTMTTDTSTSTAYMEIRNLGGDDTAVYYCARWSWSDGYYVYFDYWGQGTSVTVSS VL: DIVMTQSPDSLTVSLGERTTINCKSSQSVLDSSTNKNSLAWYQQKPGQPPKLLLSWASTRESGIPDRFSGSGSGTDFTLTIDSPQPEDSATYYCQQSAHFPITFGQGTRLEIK

>  <Mean % WT Binding [% WT]>
69

$$$$
